Test: Half life in rat
Type: ADME, organism-based
Details: in vivo
Would you kindly list half-life for each of these compounds?
One number for each entry, in h.

FC(F)(F)COC[C@H]1[C@@H]2CNC[C@@]21c1ccc(Cl)c(Cl)c1 :: 1.4
Clc1ccc([C@@]23CNC[C@@H]2[C@H]3COCC2CC2)cc1Cl (stereo in doubt) :: 1
CCOC[C@H]1[C@@H]2CNC[C@@]21c1ccc(Cl)c(Cl)c1 :: 1.2
COC[C@H]1[C@@H]2CNC[C@@]21c1ccc(Cl)c(Cl)c1 (relative stereo) :: 2.4

Turning to the following compound.
Incoming: Look up half-life: FC(F)(F)COC[C@@H]1[C@H]2CNC[C@]21c1ccc(Cl)c(Cl)c1 (stereo in doubt)
Outgoing: 1.4
